The reported measurements were obtained from paper PMC10835127.

# Test system: influenza A H1N1 virus
# details: 0,823 µM peptide, 48 hr post-treatment, A549
Listing of entries alongside the reported Neuraminidase activity normalized to vehicle.

Check out these entries, answers already filled in.
substance	measured.result
CPEP74: peptide of the viral peptide library; sequence page not shown (ALGISYGRKKRRQ)	0,913
CPEP96: peptide of the viral peptide library; sequence page not shown (GRKKRRQRRRAHQ)	0,9089
PVQLSYYD [CPEP144]	1,0036

Req: Any idea what Neuraminidase activity normalized to vehicle was measured for TGERDW [CPEP119] ?
Resp: 0,8876

Req: And ELLSGLQEWL [CPEP85] ?
Resp: 0,9858

Req: And IKQEDIKP [CPEP109] ?
Resp: 0,9055
